B1: MED27 (parent)
chain: YNENVYTEDGKLDIWSKSNYQVFQ

- Variants of: B1
- assaySummary: protein stability index of a GFP-peptide fusion (GPS, HEK-293T) (PSI 1-6); higher = more stable;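 note: lentivirally expressed fusions sorted by FACS into six bins by GFP to DsRed ratio, PSI derived from sequencing read proportions per bin multiplied by bin number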
- runConditions: c terminus: a fixed tail appended
measure: protein stability index

Here's what some known entries look like.
INSERT INTO measurements (variantspec, measure, valuemeasured) VALUES
  ('N2M', 'protein stability index', 2.01),
  ('L12P', 'protein stability index', 2.39),
  ('D13F', 'protein stability index', 1.84);

Reported protein stability index ( `E8V` ) = 1.31

Reported protein stability index ( `S18P` ) = 2.13

Reported protein stability index ( `E3C` ) = 2.04
